Tested on: SF-295 CNS
Assay: NCI tumour cell line growth inhibition, 48 h
endpoint-label: TGI (µM)

compound: COc1ccc2nc(NC(=O)C(=O)C(C(=O)c3ccccc3-c3ccccc3)C3OC(=O)c4ccccc43)sc2c1 (stereo not given)
relation: >
measured-result: 100

compound: Nc1nc(N)c(N=O)c(Nc2ccc(I)cc2)n1
relation: =
measured-result: 67.9

compound: CC[C@H](C)C1=C(O)[N@+]2([O-])Oc3ccc(-c4c(O)c(O)c(-c5ccc(OC(C)=O)cc5)c(OC(C)=O)c4OC(C)=O)cc3O[C@]2([C@@H](C)CC)C(=O)N1O
relation: >
measured-result: 50

compound: COC(=O)n1c(=O)n(-c2ccccc2)c(=O)n1C(=O)Nc1ccccc1
relation: >
measured-result: 100

compound: Cc1ccc(C(CC(=O)C(C)(C)CN2CCCCC2)SCCS(=O)(=O)O)cc1 (stereo not given)
relation: =
measured-result: 73.4

compound: CCCCCCCCCC1C(C)c2c([nH]c3ccccc23)C2C(=O)N(c3ccccc3)C(=O)C21 (stereo not given)
relation: =
measured-result: 28.9

compound: O=c1oc2ccc(Cl)cc2c(=O)n1-c1cc(C(F)(F)F)cc(C(F)(F)F)c1
relation: =
measured-result: 0.504

compound: CC1(O)CC2(O)C=CC3=C(C(=O)c4cccc(O)c4C3=O)C2(O)C(=O)C1O (stereo not given)
relation: =
measured-result: 26.7

compound: Nc1nc(N)c2c(ccc3nccc32)[nH]1
relation: >
measured-result: 91.3

compound: COC(=O)[C@]12CCC(C)(C)C[C@H]1C1=CC[C@@H]3[C@@]4(C)CC[C@H](OC5OC(CO)C(O)C(O)C5OC5OC(CO)C(O)C(O)C5O)C(C)(C)[C@@H]4CC[C@@]3(C)[C@]1(C)CC2 (stereo not given in full)
relation: =
measured-result: 27.2

compound: COc1cccc(-n2ncc3c(N/N=C/c4ccc(S(C)(=O)=O)cc4)ncnc32)c1
relation: >
measured-result: 25

compound: CCC[CH2][Ge]([CH2]CCC)([CH2]CCC)[O]C(=O)C(OC)c1ccccc1 (stereo not given)
relation: >
measured-result: 100

compound: CN1C(=O)[C@@H]2N(CSC2(C)C)C1=S
relation: >
measured-result: 100

compound: O=Cc1ccc(Oc2c3ccccc3nc3occc23)cc1
relation: =
measured-result: 36.8

compound: Cc1ccccc1NC(=O)C1C(=O)N(c2ccccc2C)C(=O)/C1=N\N (stereo not given)
relation: >
measured-result: 100

compound: NC(=O)Nc1cc(O)ccc1N=Nc1ccc(S(=O)(=O)Nc2ccccn2)cc1
relation: >
measured-result: 100

compound: Cc1cc(S(=O)(=O)NC2=NC(c3ccccc3)c3ccccc3N2)c(S)cc1Cl (stereo not given)
relation: >
measured-result: 100

compound: NC1=CN(Cc2ccccc2)C2=N/C(=C\c3ccccc3)C(=O)N12
relation: >
measured-result: 100

compound: CCC[CH2][Ge]([CH2]CCC)([CH2]CCC)[O]C(=O)C(O)c1ccccc1 (stereo not given)
relation: =
measured-result: 17.6

compound: Cc1ccc(S(=O)(=O)SCc2ccccc2CSS(=O)(=O)c2ccc(C)cc2)cc1
relation: >
measured-result: 100

----------
Test system: HL-60(TB) leukemia
Assay: NCI tumour cell line growth inhibition, 48 h
Where a SMILES comes first, the peptide text is derived from it.

compound: CCN(C(=O)CCl)C(C)(C)C(SSSC(c1ccc(Cl)cc1)C(C)(C)N(CC)C(=O)CCl)c1ccc(Cl)cc1 (stereo not given)
unit-tag: µM
relation: =
TGI: 7.92

compound: COC(=O)[C@]12CCC(C)(C)C[C@H]1C1=CC[C@@H]3[C@@]4(C)CC[C@H](OC5OC(CO)C(O)C(O)C5OC5OC(CO)C(O)C(O)C5O)C(C)(C)[C@@H]4CC[C@@]3(C)[C@]1(C)CC2 (stereo not given in full)
unit-tag: µM
relation: =
TGI: 19.4

compound: S=C=NCc1ccccc1
unit-tag: µM
relation: =
TGI: 3.95

compound: CCC[CH2][Ge]([CH2]CCC)([CH2]CCC)[O]C(=O)C(O)c1ccccc1 (stereo not given)
unit-tag: µM
relation: =
TGI: 4.3

compound: Nc1nc(N)c(N=O)c(Nc2ccc(I)cc2)n1
unit-tag: µM
relation: =
TGI: 36.7

compound: COc1ccc(/C=C2\SC(c3ccc(OC)cc3)N(NC(=O)Cc3ccccc3)C2=O)cc1 (stereo not given)
unit-tag: µM
relation: >
TGI: 100

compound: C[C@H]1CCCCC[C@@H]2CC(=O)CC2C(=O)CCC(=O)O1 (stereo not given in full)
unit-tag: µM
relation: >
TGI: 100

compound: Nc1nc(Cl)cc(NCC2(CO)CCC(O)C2)n1 (stereo not given)
unit-tag: µM
relation: >
TGI: 100

compound: CC(C)(C)CC(C)(C)N=C(N)NO
unit-tag: µM
relation: >
TGI: 100

compound: OCc1ccc2c(c1)CC1(C2)Cc2cc3c(cc2C1)CCC3
unit-tag: µM
relation: >
TGI: 100

compound: CCC[CH2][Ge]([CH2]CCC)([CH2]CCC)[O]C(=O)C(OC)c1ccccc1 (stereo not given)
unit-tag: µM
relation: >
TGI: 26.1

compound: c1ccc(N=c2sc3ccccc3sc2=Nc2ccccc2)cc1
unit-tag: µM
relation: >
TGI: 100

compound: CC(=O)NC(CS)C(=O)NC(CO)C(=O)NC(CO)C(=O)NC(Cc1c[nH]c2ccccc12)C(=O)N1CCCC1C(=O)NC(CO)C(=O)NC(Cc1c[nH]c2ccccc12)C(=O)NC(Cc1c[nH]cn1)C(=O)NC(CO)C(=O)NC(Cc1c[nH]c2ccccc12)C(=O)NCC(=O)NCC(=O)NC(CC(=O)O)C(=O)NC(CCC(N)=O)C(=O)NC(CCCCN)C(=O)NC(Cc1ccccc1)C(=O)NC(CCCNC(=N)N)C(=O)NC(CCCCN)C(N)=O (stereo not given) (Ac-CSSWPSWHSWGGDQKFRK-NH2; configuration not given here)
unit-tag: µM
relation: >
TGI: 25

compound: CO[C@H]1C[C@@H]2CC[C@@H](C)[C@@](O)(O2)C(=O)C(=O)N2CCCC[C@H]2C(=O)O[C@H]([C@H](C)C[C@@H]2CC[C@@H](OP(C)(C)=O)[C@H](OC)C2)CC(=O)[C@H](C)/C=C(\C)[C@@H](O)[C@@H](OC)C(=O)[C@H](C)C[C@H](C)/C=C/C=C/C=C/1C
unit-tag: µM
relation: =
TGI: 39.8

compound: Cc1c(C(=O)/C=C/c2ccccc2Cl)[n+](=O)c2ccccc2n1[O-]
unit-tag: µM
relation: =
TGI: 62.8

----------
TGI values, listed per item
Tested on: EKVX NSCLC
Test: NCI tumour cell line growth inhibition, 48 h
endpoint-label: TGI

molecule: Nc1ccc(Nc2c3ccccc3nc3ccccc23)cc1
measured-result: > 10 µM
--
molecule: COc1cc2nc(N3CCCC3)nc(Nc3ccccc3)c2cc1OC
measured-result: 3.53 µM
--
molecule: CC(C)c1c(O[Si](C(C)C)(C(C)C)C(C)C)c2c3c(ccc4c3c1OC4(C)C)C(C)CC2 (centres undefined)
measured-result: > 100 µM
--
molecule: O=C(Nc1nnc(-c2c(Cl)c(Cl)c(Cl)c(Cl)c2-c2nc3cc(C(=O)c4ccccc4)ccc3[nH]2)o1)c1ccccc1
measured-result: 38.7 µM
--
molecule: Cc1cc(S(=O)(=O)n2ccnc2Oc2ccccc2)c(SSc2cc(Cl)c(C)cc2S(=O)(=O)n2ccnc2Oc2ccccc2)cc1Cl
measured-result: > 100 µM
--
molecule: CC1(C)CC(=O)c2c(ccc(C(=O)C[C@H](N)CO)c2N)O1
measured-result: > 33.3 µM
--
molecule: CCN(CC)CCCOc1cc(O)c2c(=O)cc(-c3ccccc3)oc2c1
measured-result: 26.4 µM
--
molecule: COC(=O)n1c(=O)n(-c2ccccc2)c(=O)n1C(=O)Nc1ccccc1
measured-result: > 100 µM
--
molecule: NC(CSc1nc2ccccn2c1[N+](=O)[O-])C(=O)O (centres undefined)
measured-result: > 100 µM
--
molecule: Fc1ccc(-c2nnc3sc(COc4ccccc4Cl)nn23)cc1Cl
measured-result: > 100 µM
--
molecule: O=C1c2cscc2C(=O)C1(O)O
measured-result: > 100 µM
--
molecule: COc1cc(C)c2c(=O)c3c(oc2c1)C(=O)c1c(O)c(OC)cc(O)c1C3=O
measured-result: 3.25 µM
--
molecule: COC(=O)c1c2c(c(-c3ccccc3)c3c1-c1nc(Cl)ccc1CC3)CCc1ccc(Cl)nc1-2
measured-result: > 100 µM
--
molecule: C[C@H]1CCCCC[C@@H]2CC(=O)CC2C(=O)CCC(=O)O1 (some centres undefined)
measured-result: > 100 µM
--
molecule: CC(C)=CCC[C@](C)(O[C@@H]1O[C@H](CO)[C@@H](O)[C@H](O)[C@H]1O)[C@H]1CC[C@]2(C)[C@@H]1[C@H](O)C[C@@H]1[C@@]3(C)CC[C@H](O)C(C)(C)[C@@H]3[C@@H](O[C@@H]3O[C@H](CO)[C@@H](O)[C@H](O)[C@H]3O)C[C@]12C
measured-result: > 100 µM
--
molecule: COc1ccc(N2C(=O)c3cccnc3S2(=O)=O)cc1
measured-result: > 100 µM
--
molecule: C/C1=C\C/C=C(\C)[C@H]2CC(CC/C(C)=C/CC1)[C@@](C)(CO)O2
measured-result: > 100 µM
--
molecule: N#Cc1c(N)c2c(c(-c3ccccc3)c1-c1ccccc1)C(=O)N(NC(=O)c1ccccc1)C2=O
measured-result: > 100 µM
--
molecule: COc1ccc(OC)c(C#Cc2ccc(OC)c(C(=O)NCCc3ccc(F)cc3)c2)c1
measured-result: > 100 µM
